Assignment: determine reported MIC for the given molecules.
Test system: Methicillin Resistant Staphylococcus aureus strain USA 300, NRS384
test_summary: Minimum inhibitory concentration, broth micro-dilution (CLSI), S. aureus
Assay type: cell-based
run_conditions: Staphylococcus aureus, MRSA / NRS 384 / USA300, 22 h, MRSA USA 300 NRS384; 35° C., 22 hours; read-out: MIC (μg/mL) S. aureus
Method: In vitro antimicrobial activity of each compound was determined by measuring minimal inhibitor concentrations (MICs) using the broth micro-dilution technique as approved by the Clinical and Laboratory Standards Institute (CLSI) (Methods for Dilution Antimicrobial Susceptibility Tests for Bacteria that Grow Aerobically; Approved Standard—Eighth Edition. CLSI document M07-A8. Wayne, Pa.: Clinical and Laboratory Standards; 2009). […]
Numeric answer only, unit µg/mL assumed.

For the molecule CCc1ccc(-c2ncc(C(=O)N[C@@H](CCN)C(=O)N(C)[C@@H]3C(=O)N[C@@H](C)C(=O)N[C@H](C(=O)NCC#N)Cc4ccc(OCCN)c(c4)-c4cc3ccc4OCCN)c(C)n2)cc1 , what MIC is on record? 0.13

For the molecule C[C@@H]1NC(=O)[C@@H](N(C)C(=O)[C@H](CCCCN)NC(=O)c2ccc(-c3ccc(Cl)cc3)cc2)c2ccc(OCC(O)CN)c(c2)-c2cc(ccc2OCC(O)CN)C[C@@H](C(=O)NCC#N)NC1=O (mixture of isomers) , what MIC is on record? 0.094

For the molecule CCCCCCCCCC(=O)N[C@@H](CO)C(=O)N(C)[C@@H]1C(=O)N[C@@H](C)C(=O)N[C@H](C(=O)NCC#N)Cc2ccc(OCCN)c(c2)-c2cc1ccc2OCCN , what MIC is on record? 1.5

###

measurement_target: SpsB (Staphylococcus aureus signal peptidase) (Staphylococcus aureus)
Construct: This assay uses a suspension of Staphylococcus aureus cells as a source of SpsB instead of recombinant SpsB protein; endogenous in cells; host or cells: S. aureus, USA300 background, overexpressing SpsB (whole-cell suspension from frozen pellets)
Sequence (P0A070 whole entry): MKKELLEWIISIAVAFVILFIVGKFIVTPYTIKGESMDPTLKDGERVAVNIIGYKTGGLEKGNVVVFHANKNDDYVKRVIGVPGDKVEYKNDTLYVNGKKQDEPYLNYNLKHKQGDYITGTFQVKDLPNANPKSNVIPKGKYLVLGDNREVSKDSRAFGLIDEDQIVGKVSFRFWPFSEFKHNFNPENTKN
test_summary: cell-based
Format: biochemical
run_conditions: SpsB IC50, whole-cell S. aureus (USA300 background, overexpressing SpsB) as SpsB source; fluorogenic peptide substrate, kinetic read 30 min
# if measured IC50 < 1 nM: TRUE  # else: FALSE

Say whether its IC50 is strictly beneath 1 nM. Entry: C[C@@H]1NC(=O)[C@@H](N(C)C(=O)CCNCc2ccc(-c3ccc(Cl)cc3)cc2)c2ccc(OCCN)c(c2)-c2cc(ccc2OCCN)C[C@@H](C(=O)NCC#N)NC1=O TRUE

Say whether its IC50 is strictly beneath 1 nM. Entry: CCCCc1ccc(-c2ccc(C(=O)N[C@@H](CCCN)C(=O)N(C)[C@@H]3C(=O)N[C@@H](C)C(=O)N[C@H](C(=O)N4CC4C#N)Cc4ccc(OCCN)c(c4)-c4cc3ccc4OCCN)cc2)cc1 (stereo partly shown) TRUE

Say whether its IC50 is strictly beneath 1 nM. Entry: CCCCCCCCC(F)C(=O)NC(CO)C(=O)N(C)C1C(=O)NC(C)C(=O)NC(C(=O)NCC#N)Cc2ccc(OCCN)c(c2)-c2cc1ccc2OCCN (single isomer, unassigned) [Compound 394-P2] FALSE

Say whether its IC50 is strictly beneath 1 nM. Entry: CCCCCCCCc1ccc(C(=O)N[C@@H](CCN)C(=O)N(C)[C@@H]2C(=O)N[C@@H](C)C(=O)N[C@H](C(=O)NCC#N)Cc3ccc(OCCN)c(c3)-c3cc2ccc3OCCN)c(C(F)F)c1 FALSE

Say whether its IC50 is strictly beneath 1 nM. Entry: CCCCc1ccc(/C=C/C(=O)N[C@@H](CCN)C(=O)N(C)[C@@H]2C(=O)N[C@@H](C)C(=O)N[C@H](C(=O)NCC#N)Cc3ccc(OCCN)c(c3)-c3cc2ccc3OCCN)cc1 FALSE

Say whether its IC50 is strictly beneath 1 nM. Entry: CCCCC1CCC(C2CCC(C(=O)N[C@@H](CCN)C(=O)N(C)[C@@H]3C(=O)N[C@@H](C)C(=O)N[C@H](C(=O)NCC#N)Cc4ccc(OCCN)c(c4)-c4cc3ccc4OCCN)CC2)CC1 (stereo partly shown) FALSE

Say whether its IC50 is strictly beneath 1 nM. Entry: CCCCCCCCCCCCCC(=O)N[C@@H](CC)C(=O)N(C)[C@@H]1C(=O)N[C@@H](C)C(=O)N[C@H](C(=O)NCC#N)Cc2ccc(OCCN)c(c2)-c2cc1ccc2OCCN FALSE

Say whether its IC50 is strictly beneath 1 nM. Entry: CCCCCCCCCCC(C)(C)C(=O)N[C@@H](CCN)C(=O)N(C)[C@@H]1C(=O)N[C@@H](C)C(=O)N[C@H](C(=O)NCC#N)Cc2ccc(OCCN)c(c2)-c2cc1ccc2OCCN FALSE
